// provenance: PubChem BioAssay (NCI)

Tested on: MDA-MB-468 breast
ASSAY_INFO: NCI-60 one-dose screen, 48 h (100 = growth as untreated, 0 = no growth, -100 = all killed)
CONDITION_NOTES: 10 µM unless noted
Compounds without any hit were thinned out: in the full panel of roughly 83,000, 20% have a hit.
VALUE_TYPE: growth (%)
Unit % implied. Number only.

Consider the worked cases shown below.
# COMPOUND, ASSAY_RESULT
measured = [
    ("C=C1C(=O)O[C@H]2[C@H]1CC/C(COC(=O)NCc1ccc(Cn3c(=O)sn(-c4ccc(I)cc4)c3=O)cc1)=C\\CC[C@@]1(C)O[C@@H]21", 29.6),
    ("CCN(CC)CCCNc1cc(OC)c(OC)c2cccnc12", 90.5),
    ("O=C(Cc1ccccc1)C(F)(F)F", 111),
    ("COC(=O)[C@H]1Cc2c([nH]c3ccccc23)[C@@H](c2cccs2)N1", 101),
    ("O=C1Cc2ccccc2C(=O)O1", 112),
]

For reference, reported growth for COc1ccc(/C=C/C(=O)Nc2ccc(-c3nc4ccc(OC)cc4s3)cc2)cc1 stands at 67.2

For reference, reported growth for C/C(=C(/c1ccc(Cl)cc1)c1ccc(OCCN2CCCCCC2)cc1)c1ccccc1 stands at 72.5

For reference, reported growth for COc1ccc(/C=C2/SC(=O)N(CC(=O)N3CCN(c4cc5c(cc4F)c(=O)c(C(=O)O)cn5C4CC4)CC3)C2=O)cc1 stands at 108

For reference, reported growth for COc1ccc(Oc2ccc(C3CC(c4cc(OC)c(OC)c(OC)c4)=NN3C(C)=O)cc2)cc1 (stereo not given) stands at 4.96

For reference, reported growth for Cc1[nH]n(C(=O)c2ccncc2)c(=O)c1N=Nc1ccc(S(=O)(=O)Nc2ccncn2)cc1 stands at 103

====

Test system: MDA-MB-468 breast
ASSAY_INFO: NCI-60 one-dose screen, 48 h (100 = growth as untreated, 0 = no growth, -100 = all killed)
CONDITION_NOTES: 10 µM unless noted
This is part of a sample that, as a whole, favours compounds with a hit. Of some 83,000 tested, about 20% had one in any assay.
Recorded measurements of growth, one per entry
Unit % implied. Number only.

Consider the worked cases shown below.
# COMPOUND, ASSAY_RESULT
records = [
    ("Cc1nn(-c2ccccc2)cc1/C=C1\\SC(N2CCCCC2)=NC1=O", 96.3),
    ("Nc1nc(CSc2n[nH]c(N)n2)nc(Nc2ccccc2)n1", 108),
    ("O=C(CN1C=NC2C(N3CCOCC3)=NC=NC21)c1cccc2ccccc12 (stereo not drawn)", 85.9),
]

Summary: COC1=C(Br)C(=O)C(OC)=C(Br)C1=O , MDA-MB-468 breast, growth = 89.2

Summary: COc1ccc(C(=O)c2cc(OC)c(OC)c(OC)c2)cc1OC(=O)CCl , MDA-MB-468 breast, growth = 63.4

Summary: COc1ccc(Nc2nc(N)nc3c(=O)[nH]ccc23)cc1 , MDA-MB-468 breast, growth = 118

Summary: C=CCOC(=O)C1=C(C)NC(=O)NC1c1c(Cl)n(C)c2ccccc12 (stereo not drawn) , MDA-MB-468 breast, growth = 106

Summary: CCCCCCCCO/N=C\c1c2c(O)c3c(O)c(C)c4c(c3c1O)C(=O)C(C)(O/C=C\C(OC)C(C)C(OC(C)=O)C(C)C(O)C(C)C(O)C(C)/C=C\C=C(\C)C(=O)N2)O4 (stereo not drawn) , MDA-MB-468 breast, growth = 3.49

Summary: CN1CCOCCOCCOc2ccccc2NC(=O)c2nc(cnc2N)-c2ccc(cc2)S1(=O)=O , MDA-MB-468 breast, growth = 41.4

Summary: COc1cc(NCC(O)CN(CC(C)C)C2CCCC2)c2ncccc2c1 (stereo not drawn) , MDA-MB-468 breast, growth = -13.4

====

System: COLO 205 colon
ASSAY_INFO: NCI-60 one-dose screen, 48 h
CONDITION_NOTES: 10 µM
Protocol: Cells are grown in 96 well plates and exposed to the test compound for 48 hours. Compounds are tested at a single concentration, which is 10^-5 M for most compounds. The reported endpoint is percent growth (GI% or GIPRCNT), where numbers from 0 - 100% represent growth inhibition, and numbers from -100% - 0 represent cell death. For example, a value of 40 represents 60% growth inhibition. A value of 0 means no net growth occurred over the course of the experiment. […]
Compounds without any hit were thinned out: in the full panel of roughly 83,000, 20% have a hit. Activity calls are given as the source filed them. How the source made its calls: active means growth percent below 10; inactive means the rest.
I would appreciate it if you answered using one of these outcomes: Y = active, N = inactive

Sample answers from the record:
# COMPOUND, CLASS_LABEL
measured = [
    ("CCOC(=O)c1ccc(NC(=O)CSC(CC(=O)c2sc(Nc3ccccn3)nc2C)c2ccccc2F)cc1 (stereo not given)", "Y"),
    ("C#C[C@]1(O)CC[C@H]2[C@@H]3CC=C4c5sc(Nc6ccc(C(F)(F)F)cn6)nc5CC[C@]4(C)[C@H]3CC[C@@]21C", "Y"),
    ("CC(C)(C)c1cc(/C=C2\\S/C(=N/c3ncn[nH]3)NC2=O)cc(C(C)(C)C)c1O", "N"),
    ("O=C(c1ccccc1)c1ccc2nc(-c3ccccc3Br)[nH]c2c1", "Y"),
    ("Cn1cc(-c2nc(N)nnc2-c2c[nH]c3ccccc23)c2cc(Br)cnc21", "Y"),
]

Data request: Kindly provide the recorded test outcome for the following compound: COc1ccc(C(=O)COc2ccc(NC(=O)Nc3ccc(Cl)c(C(F)(F)F)c3)cc2)cc1
Data returned: Y

Data request: Kindly provide the recorded test outcome for the following compound: COc1cccc(C(=O)CSc2nc(-c3ccc(OCc4ccccc4)c(OC)c3)c(C#N)c(=O)[nH]2)c1
Data returned: N

Data request: Kindly provide the recorded test outcome for the following compound: COc1ccc(NCc2cn(-c3ccc(C(=O)O)cc3)nc2-c2ccc(F)cc2)cc1C(F)(F)F
Data returned: N

Data request: Kindly provide the recorded test outcome for the following compound: CCn1c(SCC(=O)Nc2ccc(-c3nc4ccccc4[nH]3)cc2)nc2ccccc2c1=O
Data returned: Y

Data request: Kindly provide the recorded test outcome for the following compound: Cn1cc(/C=C(/SS/C(=C/c2cn(C)c3cccc(C(=O)O)c23)C(=O)O)C(=O)O)c2c(C(=O)O)cccc21
Data returned: N

Data request: Kindly provide the recorded test outcome for the following compound: COc1cccc(O)c1/C=C1\SCc2cc3c(OC)cccc3[o+]c21
Data returned: N

Data request: Kindly provide the recorded test outcome for the following compound: O=C(c1ccc(Cl)cc1)C(c1c[nH]c2ccccc12)c1c[nH]c2ccccc12
Data returned: Y

Data request: Kindly provide the recorded test outcome for the following compound: Nc1nnc(-c2c[nH]c3ncc(Br)cc23)c(-c2c[nH]c3ccc(Br)cc23)n1
Data returned: Y

Data request: Kindly provide the recorded test outcome for the following compound: COc1ccc(C2c3sc4ccc(C)cc4c3Oc3nc[nH]c(=O)c32)cc1 (stereo not given)
Data returned: N

Data request: Kindly provide the recorded test outcome for the following compound: Cc1ccc2c(c1)C(=O)/C(=C/c1c[nH]c3ccccc13)S2
Data returned: N

Data request: Kindly provide the recorded test outcome for the following compound: COc1cc2oc(-c3cccc(C(=O)Nc4ccc(Cl)cc4)c3)cc(=O)c2c(OCCN)c1OC
Data returned: Y

Data request: Kindly provide the recorded test outcome for the following compound: COc1ccc(-n2c(SCC(=O)NNS(=O)(=O)c3ccccc3)nc3ccc(Cl)cc3c2=O)cc1
Data returned: N

Data request: Kindly provide the recorded test outcome for the following compound: Cn1cc(-c2nnc(N)nc2-c2c[nH]c3ccc(F)cc23)c2cc(Br)cnc21
Data returned: N

====

Test system: MDA-MB-468 breast
ASSAY_INFO: NCI-60 one-dose screen, 48 h (100 = growth as untreated, 0 = no growth, -100 = all killed)
CONDITION_NOTES: 10 µM unless noted
Compounds without any hit were thinned out: in the full panel of roughly 83,000, 20% have a hit.
VALUE_TYPE: growth (%)
Unit % implied. Number only.

# COMPOUND, VALUE_TYPE, ASSAY_RESULT
data = [
    ("COc1ccc(/C=N/NC(=O)c2c(N)nn(C)c2Nc2ccccc2)cc1", "growth", -1.26),
]

Summary: COc1cc(-c2csc(NC(=O)c3cc(-n4cnc(C)c4)cc(C(F)(F)F)c3)n2)cc(OC)c1OC , MDA-MB-468 breast, growth = 78.4

Summary: Cc1oc2nc[nH]c(=O)c2c1C(=O)/C=C/c1ccc(Br)cc1 , MDA-MB-468 breast, growth = -55.4

Summary: Cc1ccc(-c2cc(-c3ccccc3C)[nH]c(=O)c2C#N)s1 , MDA-MB-468 breast, growth = 99.3

Summary: CNC(=O)c1cccc(Cn2nc(C)c(NC(=O)c3ccc(COc4ccc(C(F)(F)F)cc4C)cc3)c2C)n1 , MDA-MB-468 breast, growth = 3.58
